// data source = BindingDB's records for doi:10.1002/1439-7633(20010601)2

The following compounds each carry a recorded IC50 for Acetylcholinesterase (Torpedo marmorata, UniProt P07692).
PROPERTY NAME: IC50 (nM)

> print(dat)
                                   compound  reported
1        C[N+](C)(C)CCCCCCCCCCCC[N+](C)(C)C      93.2
2  O=C(C[n+]1ccccc1)N/N=C/c1ccc(/C=N/NC(=O)C[n+]2ccccc2)cc1 [Terephthalaldehyde, 4-I-4]       2.3
3  c1cc[n+](CCCCCCCCCC[n+]2ccccc2)cc1 [1,10-di(1-pyridiniumyl)decane; diiodide]      25.8
4  c1cc[n+](CCCCCCCCCCCC[n+]2ccccc2)cc1 [1,12-Bis(pyridinium)dodecane]        16
